B1: tRNA (parent)
chain: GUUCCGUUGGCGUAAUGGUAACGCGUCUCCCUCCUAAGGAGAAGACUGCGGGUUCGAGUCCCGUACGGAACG

- Variants of: B1
- methodNotes: yeast fitness relative to wild type (ratio to wild type); higher = fitter; tRNA-Arg(CCU), competitive growth, 37 C, YPD
Fewer inactive variants are shown than the library holds.
Listed next: entries and their corresponding yeast fitness.

{"columns": ["sequenceEntry", "yeast fitness"],
 "data": [
  ["GUUCCAUUGGCGUAAUGGUAACACGUUUCCCUCCUAAGGAGAAGACUGCGGGUUCGAGUGCCGUACAGAACG [G6A G23A C27U C60G G67A]", "≤ 0.5"],
  ["GUUCCGUCGGCGUAAUGGUUUCGCGGCUCCAUCCUAAGGAGAAGACUGCGGGAUCGAGUCCCGUACGGCACG [U8C A20U A21U U26G C31A U53A A69C]", "≤ 0.5"],
  ["GUUCCGUUGGCAUAAUGGUACCGCGUCUCCUUCCUAAGGAGAAGACUGCGGGUUCGAGUCCCGUACGGAACG [G12A A21C C31U]", "≤ 0.5"],
  ["GUUCAGUUGGCGUAAUGGUAACGCGUCUCCCUCCUACGGAGAAGACUGAGGGUUCGAGUCCCGUACGUAACG [C5A A37C C49A G68U]", "≤ 0.5"],
  ["GUUCGGUUGGCGUAAUGGGAAUGCGUCUCCCUCCUAAGGAGACGACUGCGAGUUCGAGUCCCGUACGGAACG [C5G U19G C22U A43C G51A]", "≤ 0.5"],
  ["GUUCCGUUCGCGUAAUGGUAACGCGUCUCCCUCCUAAGGAGAAGACUGCGGGUUCGAGUCGCCUACGGAACG [G9C C61G G63C]", "≤ 0.5"],
  ["GUUCCAUUGGCGUAAUGGUCACGCGUCUCCCUCCUAAGGCGUAGACUGCGGGUUCAAGUCCCGUAGGGAACG [G6A A20C A40C A42U G56A C66G]", "≤ 0.5"],
  ["GUUCCGUUGGCGUAAUGGUAACGCGUCUCCCUCCUAAGGAGAAGACUGCAGGUUCGCGUCCCGUAUGGAACG [G50A A57C C66U]", "≤ 0.5"],
  ["GUUCCGUUGGCGUAAUGGUAACGUGUCUCCCUCCUAAGGAGAAGACUGCGAGUUCGAAUCCCGUACAGAACG [C24U G51A G58A G67A]", "≤ 0.5"],
  ["GUUCCGUUGGCGAAAUGGUAACGAGUCUCCCUCCUAAGGAGAAGCCUGCGGGUUCGAGUCCCGUACGGAACG [U13A C24A A45C]", "≤ 0.5"],
  ["GUUCCGUUGCCGUAAUGGUAACGCGUCUCCCUCAUAAGGGGAAGACUGCGGGUUCGAGUCCCGUACGCAACG [G10C C34A A40G G68C]", "≤ 0.5"],
  ["GUUCCGAUGGCGUAAUGGUAACGCGUCUCCCUCCUAAGGAGAAGAUUGCGGGUUCGAGCCCGGUUCGGAACG [U7A C46U U59C C62G A65U]", "≤ 0.5"],
  ["GUUCCCUUGGCGUAAUGGUAACGCGUCUCCCUCCUAUGGAGAAGACUGCGGGUUCGCGUCCCGUACGGUCCG [G6C A37U A57C A69U A70C]", "≤ 0.5"],
  ["GUUCCAUUGGCGUAAUGGUAAAACGUCUCCCUUGUAAGGAGAAGACUGCGGGUUCGAGUCCCGUACGCAACG [G6A C22A G23A C33U C34G G68C]", "≤ 0.5"],
  ["GUUCAGUUGGAGUAAUGGUAACGCGUCUCUAUCCUAAGGAGAAGACUGCGGGUUCGAGUCACGUACGGAACG [C5A C11A C30U C31A C61A]", "≤ 0.5"],
  ["GUUUCGUUGGCGUAAUGGUAAUGCGUUUCCCUCCUAAGGAGAAGACUGCGGGUUCGACUCCCGUACGGAACG [C4U C22U C27U G58C]", "≤ 0.5"],
  ["GUUCAGUUGGCGGAAUGGUAACGGGUCUCCAUCCUAAGGAGAAGACUGCGGGUUCGAGUCCGGAACGGAACG [C5A U13G C24G C31A C62G U64A]", "≤ 0.5"],
  ["GUUCCGUUGGCGUAAUGGUAACGCGUCUCCCUCCUAACGAGAAGACUGCGGGUUCGAGUCCCCUGCGGAACG [G38C G63C A65G]", "≤ 0.5"],
  ["GUUCCGUUGGCGUAUUGGUACCCCGUCUCCCUCCUAAGGAGAAGACUGCGGGUUAGAGUCCCGACCAGAACG [A15U A21C G23C C55A U64A A65C G67A]", "≤ 0.5"],
  ["GUUCCGUUGGCGUAAUGGUAUUGCGUCUCCCUCCUAAGGAGAAGACUGCGGGUUCGAGUCCCGUAUGGUACG [A21U C22U C66U A69U]", "≤ 0.5"],
  ["GUUCCGUUGGCGUAAUGGUAACGCGUCUCCCUCCUGAGGAGAAGACUGCGGGUUCGAGCCAUGUACGGAACG [A36G U59C C61A C62U]", "≤ 0.5"],
  ["GUUCCGUUGGCGUAAUGGUAAUGCGUCUCUCUCCUAAGGCGAAGACUGCGGGUUAGAGUCCCGUGCGGAACG [C22U C30U A40C C55A A65G]", "≤ 0.5"],
  ["GUUCUGUUGGCGUAAUGGUAACGCGUCUCCCUCCUAAGGAGAAGACUGCAGGUUCGAGUCCCGUAAGGAACG [C5U G50A C66A]", "≤ 0.5"],
  ["GUUCCGUUGGCGUAAUGGUAACGCCUCUCCCGCCUAAAGAGAAGACUGCGGGUUCGAGUCUCGUACGGAACG [G25C U32G G38A C61U]", "≤ 0.5"],
  ["GUUCCGUUGGCGUAAUGGUAACGCGACUCCCUCCUAAGGAGAUGACUGCGGGUUCGAGUCCCGUUCGGAACG [U26A A43U A65U]", 0.618],
  ["GUUCCGUUGGCGUAAUGGUAACGAGUCUCCCUACUAAGGAGAAGAUUGCGGGUUCGAGUGCCGUACGGAACG [C24A C33A C46U C60G]", "≤ 0.5"],
  ["GUUCCGUUGGCGUAAUGGUAACGCGUCUCCCUCCUAGGGAGAAGACUGCGGGUUCGAGGCCCGUACGGAACG [A37G U59G]", 0.75],
  ["GUUCCGUUGGCCUAAUGGUAACGCUUCUCCCUCCUAAGGAGAACACUGCGGGUUCGAGUCCCGUACGGAACG [G12C G25U G44C]", "≤ 0.5"],
  ["GUUCCGUUGGCGUAAUGGUAACGCGUCUCCCUCCUAAGGAGAAGAAUACGGGUUCGAGUCCCGGACGGAACG [C46A G48A U64G]", 0.951],
  ["GUUCCGUUGGCAUAAUGGUAAGGCGUCUCCCUCCUAAGGAGAGGACUGCGGGUUAGAGUCCCGUACGGAACG [G12A C22G A43G C55A]", "≤ 0.5"],
  ["GUUCCGUUGGCGUAAUGGUAACGCGUCUCCCCCCCAAGGGGAAGACUGCGGGUUCGAGUCCCGUACGGAACG [U32C U35C A40G]", "≤ 0.5"],
  ["GUUCCGUUGGCGUAGUGGAAACGCGUCUCCCUCCUAAGGAGAAGACUGCGGGUUCGAGUCCCGUACGGUACG [A15G U19A A69U]", 0.729],
  ["GUUCCGUUGGCGUAAUCGUAACGCGUCUCCCUCCUAAGGAGAUGACUGCGGGUUCGAGUCCCGUACGGAACG [G17C A43U]", 0.589],
  ["GUUCCGUUGGCGUAAUGGUAAAGCGUCUCCCUCCUAAGGAGAAGACUGCGGGUUCGAGUCCCGUACGGAACG [C22A]", 1],
  ["GUUCCGUUGGCGUAUCGGUAACGCGUCUCCCUCCUAAGGAGAAGACUGCGGGUUCGAGUCCCGUACGGAACG [A15U U16C]", 0.893],
  ["GUUCCGUUGGCAUAAUGGUAACGCGUCUGCCUCCUAAGGAGAAGACUGCGGGUUCGAGUCCCGUUCGGAACG [G12A C29G A65U]", 0.58],
  ["GUUGGGUUGGCGUAAUGGUAACGCGUCUACCUCUUAAGGAGUAGACUGCCGGUUCGAGUCCCGUACGGAACG [C4G C5G C29A C34U A42U G50C]", 0.531],
  ["GUUCCGUUGGCGUAAUGGUAACGCGGCUCCCUCCUAAGGAGAAGACUGCGGGUUCGAGUCCCGUACGGAUCG [U26G A70U]", 0.896],
  ["GUUCCGUUGACGUAAUGGUGACACGUCUCCCUCCUAGGGCGAAGACUGCGGGUUCGAGUCCCGUAUGGAACG [G10A A20G G23A A37G A40C C66U]", "≤ 0.5"],
  ["GUUCCGUUGGCGUAAUGGUAACGCGUCUCCCCCCUUAGGAGAAGACUGCGGGUUCGAGUCGCGUACGGAACG [U32C A36U C61G]", "≤ 0.5"],
  ["GUUCCGUUGGCGUAAUGGAAACGCGUUUCCCUCCUAAGGAGAAAACUGCGGGUUCGAGUCCCGUACGGAACG [U19A C27U G44A]", 0.781],
  ["GUUCCGUUGGCGUAAUGGUAACGCGUCUCCGUCCUUAGGAGAAGACUGCGGGCUCGAGUCACGUACGAAACG [C31G A36U U53C C61A G68A]", "≤ 0.5"],
  ["GUUCCGUUAGCGUAAUGGUAACGCGUCUCCCUCCUAAGGAGAAGACCCCGGGUUCGAGACCCGUAAGGCACG [G9A U47C G48C U59A C66A A69C]", "≤ 0.5"],
  ["GUUCCGUUGGCGUAAUGGUAACGCGUCUCCCUCCUAAGGAGAAGUCUGCGGGUUCGAGUCCCGUACGAAACG [A45U G68A]", 0.926],
  ["GUUCCGUUGGCGCAAUGGUCCCGCGUCUCCCUCCUAAGGAGAAGAGUGCGGGUUCGAGUCCCGUACGGAACG [U13C A20C A21C C46G]", "≤ 0.5"],
  ["GUUCCGUCGGCGUAAUGGUAACGCGUUUCCCUCCUAAGGGGAAAACUGCGGGUUCGAGUCCAGUACGGAACG [U8C C27U A40G G44A C62A]", "≤ 0.5"],
  ["GUUCCGUUGGCGUAAUGGUAACGCAUCUCCCUCCUAAGGAGAAGACUGCGGGUUCGAGUCCCGUACGGAUCG [G25A A70U]", 1.01],
  ["GUUCCGUUGGCGUAAUGGUAACGCGUCCCCCUCCUAACGAGAAGACUGCGGAUUCGAGUCCCGUACGGAACG [U28C G38C G52A]", "≤ 0.5"],
  ["GUUCCGUUGGCGUAAUGGUAACGCGUCUCCCUCCUAAGGAGAAGACGGAGGGUUCGAGUCCCAUACGAAACG [U47G C49A G63A G68A]", "≤ 0.5"],
  ["GUUCCGUUGGGGUCAUGGUAACCCGUCUCCCUCCUAAGGACAAGACUGCGGGUUCGAGUCCCGUACGGAACG [C11G A14C G23C G41C]", 0.531],
  ["GUUCCGUUGGCGUAAUGGUAUCGCGUCUCCCUCCUAACGAGAACACUGCGGGUUCGAGUCCAGUACGGAACG [A21U G38C G44C C62A]", "≤ 0.5"],
  ["GUUCCGUUGGCGUAAUCGUAACGCGUCUACCUCCUAAGGAGAAGACUGCGGGUUCGUGUCCCGUACGGAACG [G17C C29A A57U]", "≤ 0.5"],
  ["GUUCCGUUGGUGUAAUGGUAACGCGUCUCCCUCCCAAGGAGAAGACUGCGGGUUCGAGUCCCGUACGGAGCG [C11U U35C A70G]", 0.641]
]}
